Data provenance is ChEMBL document CHEMBL1201862.

test system: HOP-62; experiment: NCI tumour cell line growth inhibition, 48 h
The source made the active and inactive calls. No stated cut-off is given here; in the data, active = GI50 up to about 1.1 µM and inactive = higher.
Reported GI50 values for the following compounds.

compound	GI50
O=C1OC(O)c2cc3c(cc21)OCO3 (configuration not stated)	> 100 µM (inactive)
COc1cccc(NC(=O)CC(=O)NNCC(=O)Nc2nnc(-c3ccc(N(CCC#N)S(=O)(=O)c4ccccc4)cc3)s2)c1	88.7 µM (inactive)
CC(C)OC(=O)Nc1c([N+](=O)[O-])cc(C(F)(F)F)cc1[N+](=O)[O-]	93.3 µM (inactive)
Nc1nc(Br)nc2ncn(C3CC(O)C(CO)O3)c12 (configuration not stated)	> 100 µM (inactive)
COc1cc(C(C)O)c[n+](Cc2ccccc2)c1 (configuration not stated)	> 100 µM (inactive)
COc1ccc2nc(-c3ccc(OC(=O)N(C)C)cc3)cn2c1	> 100 µM (inactive)

Reported GI50 for O=CN/C=C/c1ccccc1 : what is it?
> 100 µM (inactive)

Now this one: CCOC(=O)CCSS(=O)(=O)c1ccccc1
> 100 µM (inactive)

Now this one: CCOC(=O)c1c(C)n(-c2ccc(C)cc2)c2c1cc(O)c1[nH]c3c(c12)CCCC3
27.9 µM (inactive)

Now this one: NC1CCC[C@H]1O (some centres not stated)
> 100 µM (inactive)

Now this one: CN1C(=O)c2ccccc2OC12C=Cc1ccc(O)cc1O2 (configuration not stated)
13.3 µM (inactive)

Now this one: OCc1cn(Cc2ccccc2)c2ccccc12
5.32 µM (inactive)

* * *

test system: MCF7; assay: NCI tumour cell line growth inhibition, 48 h
Active and inactive are the calls of the source. No stated cut-off is given here; in the data, active = GI50 up to about 1.1 µM and inactive = higher.
Select the matching outcome among yes (active), no (inactive)

Example entries begin here.
compound	class label
O=C(O)c1cc(N(Cc2ccccc2O)Cc2cc(O)ccc2O)ccc1O	no
c1ccc2c(-c3cnc(-c4c[nH]c5ccccc45)cn3)c[nH]c2c1	no
CCOC(=O)N(CC)c1c(C(F)(F)F)cc(-c2ccccc2)[nH]c1=O	no
C=CCN1CN(C2CCCCC2)CSC1=S	no
COc1ccc(C2=C(OC(C)=O)c3cccn3-c3ccc(Cl)cc3S2)cc1	no
C=C(Cl)/C(=C\Cl)CCC(Br)C(C)C (stereo not drawn)	no
C1CCC(OC2CSC2)OC1 (stereo not drawn)	no
CC(C)CC(NC=O)C(=O)NC(Cc1ccccc1)NC(=O)CNC(=O)C(C)NC(=O)OC(C)(C)C (stereo not drawn)	no
O=C(O)/C=C\C(=O)Nc1ccc2c(c1)-c1ccccc1C2	no
COc1cc(S(=O)(=O)Nc2ccc(-c3csc(N4C(=O)CSC4c4cccc(Oc5ccccc5)c4)n3)cc2)ccc1Cl (stereo not drawn)	no

# fetch the recorded call for CCCCC1(NN=C2CCCCC2)C(=O)N(c2ccccc2)N(c2ccccc2)C1=O here
no

Now this one: Nc1nc2c(ncn2Cc2ccc(CO)cc2)c(=O)[nH]1
no

Now this one: Cc1cc(Cl)nc(Nc2nc3ccccc3[nH]2)n1
no

Now this one: CCCOC(=O)C1C2CCC(O2)C1C(=O)O (stereo not drawn)
no

Now this one: CCO[C@H]1O[C@@H]2OC3(C)CCC4[C@H](C)CCC([C@H]1C)[C@]42OO3 (stereo partly drawn)
no

Now this one: CC(=C\c1ccccc1)/C=C(\C#N)C(N)=O
no

Now this one: CC(=O)OC(C)c1cc2c(s1)C(=O)c1scc(C(C)OC(C)=O)c1C2=O (stereo not drawn)
yes

Now this one: COc1ccc2nc(-c3ccc(OC(=O)N(C)C)cc3)cn2c1
no
